The measured values listed here are drawn from ChEMBL document CHEMBL3621150.

ASSAY SUMMARY: Inhibition of Trypanosoma brucei FolD dehydrogenase activity assessed as formation of 5,10-CH=THF from 5,10-CH2-THF after 5 mins by spectrophotometric analysis
API: label(entry) gives rule met if the entry's IC50 is strictly smaller than 20 µM; on equality or larger values it gives rule not met.

{"columns": ["STRUCTURE", "CLASS ASSIGNMENT"],
 "data": [
  ["Nc1nc(N)c(NC(=O)Nc2ccc(C(=O)N[C@@H](Cc3ccccc3)C(=O)O)cc2)c(=O)[nH]1", "rule met"],
  ["Nc1nc(N)c(NC(=O)Nc2ccc(C(=O)N[C@@H](CCC(=O)O)C(=O)O)cc2)c(=O)[nH]1", "rule met"],
  ["C[C@H](NC(=O)c1ccc(NC(=O)Nc2c(N)nc(N)[nH]c2=O)cc1)C(=O)O", "rule met"]
]}

Determine if CCOC(=O)c1ccc(NC(=O)Nc2c(N)nc(N)[nH]c2=O)cc1 shows IC50 strictly lower than 20 µM.
rule not met
